The measurements presented in this section are drawn from ChEMBL document CHEMBL1146641.

- Test system: ECV-304
- test-description: Cytotoxic activity against ECV304 (human endothelial) cell line.
- Type: functional, cell-based
result-type: IC50 (µg/mL)

- C=C(C)[C@@H]1CC[C@]2(C(=O)O)CC[C@]3(C)C(CCC4[C@@]5(C)CC[C@H](OC(=O)c6ccc(CCCCCCC)cc6)C(C)(C)C5CC[C@]43C)C12 (stereo partly drawn): 1.7
- C=CC(=O)OC(=O)[C@]12CC[C@@H](C(=C)C)C1C1CCC3[C@@]4(C)CC[C@H](O)C(C)(C)C4CC[C@@]3(C)[C@]1(C)CC2 (stereo partly drawn): 4

----------
The entries below come with measured ECS ratio values attached.
- Tested on: ECV-304
- test-description: Ratio of IC50 against PA-1 ovary tumor cell line to IC50 of human endothelial ECV304 cell line
- Format: functional, Female gonad
result-type: ECS ratio

* CC(C)[C@@H]1CC[C@]2(C(=O)O)CC[C@]3(C)C(CCC4[C@@]5(C)CCC(/N=C/c6ccc(F)c(F)c6)C(C)(C)C5CC[C@]43C)C12 (some centres not stated) | 3.7
* C=C(C)[C@@H]1CC[C@]2(C(=O)O)CC[C@]3(C)C(CCC4[C@@]5(C)CC/C(=N\Nc6ccccc6)C(C)(C)C5CC[C@]43C)C12 (some centres not stated) | 2.08
* CC(C)[C@@H]1CC[C@]2(C(=O)O)CC[C@]3(C)C(CCC4[C@@]5(C)CC[C@H](OC(=O)c6ccc(F)cc6F)C(C)(C)C5CC[C@]43C)C12 (some centres not stated) | 2.3
* C=C(C)[C@@H]1CC[C@]2(C(=O)O)CC[C@]3(C)[C@H](CC[C@@H]4[C@@]5(C)CC[C@H](O)C(C)(C)[C@@H]5CC[C@]43C)[C@@H]12 [BETULINIC ACID] | 3.2
* CC(C)[C@@H]1CC[C@]2(C(=O)O)CC[C@]3(C)C(CCC4[C@@]5(C)CCC(NNc6ccccc6)C(C)(C)C5CC[C@]43C)C12 (some centres not stated) | 7
* C=CC(=O)OC(=O)[C@]12CC[C@@H](C(C)C)C1C1CCC3[C@@]4(C)CC[C@H](O)C(C)(C)C4CC[C@@]3(C)[C@]1(C)CC2 (some centres not stated) | 0.75
* CC(C)[C@@H]1CC[C@]2(C(=O)O)CC[C@]3(C)C(CCC4[C@@]5(C)CCC(/N=C/c6ccc(F)cc6F)C(C)(C)C5CC[C@]43C)C12 (some centres not stated) | 0.54
